# method: Activity at HCMV US28 receptor assessed as receptor-mediated inositol phosphate response
# Design: species or system Human betaherpesvirus 5
Entries and their measured EC50 follow.
Write the number in µM without appending the unit.

compound="CCCCCCCCN1C2CCC1CC(OC1c3ccccc3CCc3ccccc31)C2 (configuration not stated)" measvalue=4.9
compound="OC1(c2ccc(Cl)cc2)CCN(CCOC(c2ccccc2)c2ccc(F)cc2)CC1 (configuration not stated)" measvalue=4.6
compound="CSc1ccc2c(c1)C(OCCN1CCC(O)(c3ccc(Cl)cc3)CC1)Cc1ccccc1S2 (configuration not stated)" measvalue=7.1
compound=OC1(c2ccc(Cl)cc2)CCN(CCCN(Cc2ccccc2)c2ccc(Cl)cc2)CC1 measvalue=5
compound="CSc1ccc2c(c1)C(N1CCN(C)CC1)Cc1ccccc1S2 (configuration not stated) [METITEPINE]" measvalue=7.6
compound="C1=Cc2ccccc2C(OC2CC3CCC(C2)N3C2CCCCC2)c2ccccc21 (configuration not stated)" measvalue=5.8

## Task Query: EC50; subject: OC1(c2ccc(Cl)cc2)CCCN(CCCN2Cc3ccccc3CCc3ccccc32)C1 (configuration not stated)
## Result 3.9

## Task Which EC50 reading was recorded for the compound CC(C)(C)c1ccc(C(OC(CN)c2ccccc2)c2ccccc2)cc1 (configuration not stated) ?
## Result 8.4

## Task I would be grateful if you could share the reported EC50 for "OC1(c2ccc(Cl)cc2)CCN(CCCN(Cc2ccccc2)c2ccccc2)CC1" .
## Result 3

## Task So what does the record say about EC50 for Clc1ccc(CC2Cc3ccccc3C2N2CCCCC2)c(Cl)c1 (configuration not stated) ?
## Result 2.6

## Task Fill in the blank: the reported EC50 of COc1ccc(CC2Cc3ccccc3C2N)cc1C (configuration not stated) is ____.
## Result 16.4

----------
# System: Human betaherpesvirus 5
# method: Displacement of [125I]CCL5 from HCMV US28 receptor at 10 uM
Output class 1 for records whose Activity is lower than 20%, class 0 for records at or above 20%.

# example entries with known answers
compound=CN1CCN(C2=Nc3cc(Cl)ccc3Nc3ccccc32)CC1 labelvalue="class 0"
compound=CN1[C@@H]2CC[C@H]1C[C@@H](OC1c3ccccc3CCc3ccccc31)C2 labelvalue="class 1"
compound=CCN1CCN(C2=Nc3cc(Cl)ccc3Oc3ccccc32)CC1 labelvalue="class 0"
compound="CC(Cc1cccc(C(F)(F)F)c1)NCC=C(c1ccc(F)cc1)c1ccc(F)cc1 (stereo not given)" labelvalue="class 0"

Note: attention shifts to another entry.
## Task Does CC(C)N1C2CCC1CC(OC1c3ccccc3C=Cc3ccccc31)C2 (stereo not given) have Activity strictly under 20%?
## Result class 1
